Kindly supply the reported soluble fraction (log2) values for the records listed here.
Assay: soluble fraction after stress (log2 fold change); higher = more stays soluble; pooled small domains, quantitative proteomics
Details: stress: 50 degC
# output: bare number, no unit

(Q) Entry under review: HMGALAITPDFVGQTREEAERFLRDLDLSFDIGGKGDRILRQEPVAGQRMNLDQPMKLWVGSMNA . Reported soluble fraction (log2)?
(A) 0.0609

(Q) Now the sequence HMPKDMAKRASILTAASKLFVQHGYGGVSMDQIAAEAGVSKLTVYSHYGDKDSLFAAAVQAH
(A) -0.328

(Q) Follow-up item: HMGLQDLFLNSLRKSKTPVTMFLVKGVKLQGVVTWFDNFSVLLRRDGMSQLVYKHSISTIMP
(A) -0.0722

(Q) Then HMTKDVIEIVDGNKFVFHKTIATDSVSSVINKYHISEADFRTWNELTGDMKVGEEYIVQLSLH ?
(A) -1.26

(Q) Then what about the sequence HMDGKPSLIISNGQINYKEMVKLRYSLEDLLFQLRQNSIKSIEEVEYAFLESNGKLSIFPYNFL ?
(A) -1.51

(Q) Param item: HMGSNRPLALGDVVRIEGSKTLGTILELNAKDAVVALGALKTTLPLSRIHHASSQESQRLKRQATQAPLR
(A) 0.123

(Q) And for HMVITDPFFLEPENLVKDAVALMEKYRISGVPITKKGKLVGILTNRDLRFESNYEQPIANVMS ?
(A) -0.0305

(Q) Same for HMELSSRQAMIVDIVRKYEPITSEQIADKLNLTRSALRPDLAVLTMIGILEARPRVGYFFTGK
(A) 0.141

(Q) Consider next the sequence HMDRKFFFNEQYEDYINSDLKVKFMNDSGSKKSFQGELTKVTPSDLFLESEKESVKVPFSSIIQANLI in the same way.
(A) -0.147

(Q) Cool, now HMKQLLHLVIGGELKDVRGIEFEDLSKIDFVGAFPSYKAAYDAWKNAAQRTVDNAEMRYFILHAHR
(A) -1.79

(Q) Now this one: HMQDVWEPFLAKGYVFADGMLTKLIHKRGDVYKTQEIGSDKIIYVIKDGDTFAHGKTVKAAMLDLAFKKS
(A) -1.29

(Q) Note, next up: HMKEQIKVPDLSNKTPEEAKKELNTLGLGARKGGEESSDTVEEGLITRQEPAAGEQVDKNTQILFYVSTGK
(A) 0.0624

(Q) Now try HMLAVSVDKDGKVYIQDSETAVDAVTAKLRAISGNNSEIRIFVRGDADVNYGRIMEIMGVINAAGFRKVAL .
(A) -0.467

(Q) Same thing, different sequence: HMSSSYVYGGNGEIVILSDVSKHLNVYNLNGQKVTDVNLTAGELQRISIATGIYVVGGKKIVV
(A) -2.92

(Q) Same lookup for HMNQKKFIQADYEDRLFDHLAFEVKDMEKIISMMRREKFTITDEPFRLSPTGSLIAFVEDPDRTLIELIER , please.
(A) -0.32

(Q) Follow-up entry: HMLTAPMPGTIQQILVTKGQKVRSGQTLMILEAMKMEHKIKAPNSGEIISINYSLGNRVEMGANLIEI
(A) -1.13

(Q) Again, but for HMIIVMKRNATETQIDHVVRWVESIGYRAHRSNGTEQTVVKAVGGERGGEELKYLAALSGVEKVVPIR
(A) -0.0291
